Recorded IC50, one value per entry.
assayed.target: Leucine-rich repeat serine/threonine-protein kinase 2 (Homo sapiens, UniProt Q5S007, G2019S)
Sequence (Q5S007 whole entry G2019S): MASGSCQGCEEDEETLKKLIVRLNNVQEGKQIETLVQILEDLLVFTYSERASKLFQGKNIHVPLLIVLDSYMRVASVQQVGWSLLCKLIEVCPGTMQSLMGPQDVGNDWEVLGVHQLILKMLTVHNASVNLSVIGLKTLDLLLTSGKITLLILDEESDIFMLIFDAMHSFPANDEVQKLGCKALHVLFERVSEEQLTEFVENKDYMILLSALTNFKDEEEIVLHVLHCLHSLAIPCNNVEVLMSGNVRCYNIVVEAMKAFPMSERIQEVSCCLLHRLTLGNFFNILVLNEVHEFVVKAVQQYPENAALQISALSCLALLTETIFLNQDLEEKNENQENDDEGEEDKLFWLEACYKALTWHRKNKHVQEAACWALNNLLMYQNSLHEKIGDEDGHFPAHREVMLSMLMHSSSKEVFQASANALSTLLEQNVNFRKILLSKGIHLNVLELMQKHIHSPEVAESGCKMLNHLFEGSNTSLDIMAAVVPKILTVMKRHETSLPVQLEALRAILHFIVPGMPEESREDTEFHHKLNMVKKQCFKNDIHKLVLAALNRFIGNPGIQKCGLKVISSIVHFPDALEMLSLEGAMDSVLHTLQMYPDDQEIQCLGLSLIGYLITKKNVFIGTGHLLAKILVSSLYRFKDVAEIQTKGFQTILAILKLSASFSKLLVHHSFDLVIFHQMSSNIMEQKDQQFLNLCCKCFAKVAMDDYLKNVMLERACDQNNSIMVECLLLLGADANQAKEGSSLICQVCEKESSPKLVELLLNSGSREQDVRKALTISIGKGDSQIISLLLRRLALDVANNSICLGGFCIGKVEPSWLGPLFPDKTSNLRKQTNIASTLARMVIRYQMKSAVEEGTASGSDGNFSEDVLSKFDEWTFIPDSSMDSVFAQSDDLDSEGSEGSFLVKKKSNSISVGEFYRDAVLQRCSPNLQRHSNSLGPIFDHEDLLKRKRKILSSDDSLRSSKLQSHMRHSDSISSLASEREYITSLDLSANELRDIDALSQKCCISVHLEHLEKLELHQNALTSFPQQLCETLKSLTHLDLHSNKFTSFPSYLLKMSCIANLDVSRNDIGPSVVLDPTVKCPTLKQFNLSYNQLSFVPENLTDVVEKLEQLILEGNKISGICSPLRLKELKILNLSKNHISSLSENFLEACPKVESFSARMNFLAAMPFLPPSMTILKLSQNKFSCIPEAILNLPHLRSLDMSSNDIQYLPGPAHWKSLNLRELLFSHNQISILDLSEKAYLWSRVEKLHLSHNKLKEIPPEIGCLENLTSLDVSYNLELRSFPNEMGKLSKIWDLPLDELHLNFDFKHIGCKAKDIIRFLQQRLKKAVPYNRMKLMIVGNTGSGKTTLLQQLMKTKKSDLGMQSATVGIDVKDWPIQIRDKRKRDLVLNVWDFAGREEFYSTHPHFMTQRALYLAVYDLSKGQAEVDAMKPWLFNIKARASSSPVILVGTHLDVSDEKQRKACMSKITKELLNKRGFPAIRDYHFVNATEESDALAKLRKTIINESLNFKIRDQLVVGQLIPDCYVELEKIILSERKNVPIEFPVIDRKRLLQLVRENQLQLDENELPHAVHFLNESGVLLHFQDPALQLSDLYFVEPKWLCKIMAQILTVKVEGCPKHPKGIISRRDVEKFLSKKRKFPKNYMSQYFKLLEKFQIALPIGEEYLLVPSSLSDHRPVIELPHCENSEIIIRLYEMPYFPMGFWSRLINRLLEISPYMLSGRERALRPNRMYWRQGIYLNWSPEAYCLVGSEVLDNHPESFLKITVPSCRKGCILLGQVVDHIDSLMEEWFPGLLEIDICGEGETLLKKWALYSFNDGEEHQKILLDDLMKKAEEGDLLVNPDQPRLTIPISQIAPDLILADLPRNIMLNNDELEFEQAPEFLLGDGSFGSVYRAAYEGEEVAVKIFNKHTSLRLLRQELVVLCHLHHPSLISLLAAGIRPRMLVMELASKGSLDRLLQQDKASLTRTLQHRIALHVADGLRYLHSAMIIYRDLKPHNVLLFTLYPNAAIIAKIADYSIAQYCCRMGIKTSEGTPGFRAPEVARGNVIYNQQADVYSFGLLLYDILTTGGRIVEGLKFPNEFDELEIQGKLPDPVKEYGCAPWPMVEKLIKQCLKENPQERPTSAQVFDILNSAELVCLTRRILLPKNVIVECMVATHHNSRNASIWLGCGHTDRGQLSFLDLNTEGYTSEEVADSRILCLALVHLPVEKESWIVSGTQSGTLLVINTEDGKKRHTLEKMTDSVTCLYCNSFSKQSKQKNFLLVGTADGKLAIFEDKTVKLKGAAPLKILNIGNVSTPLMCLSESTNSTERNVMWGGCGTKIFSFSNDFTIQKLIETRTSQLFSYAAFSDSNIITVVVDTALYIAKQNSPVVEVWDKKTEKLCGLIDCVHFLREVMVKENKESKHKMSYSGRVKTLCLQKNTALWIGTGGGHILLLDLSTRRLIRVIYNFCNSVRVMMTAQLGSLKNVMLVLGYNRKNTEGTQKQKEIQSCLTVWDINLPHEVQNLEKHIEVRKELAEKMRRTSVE
assay.name: Inhibition of GST-tagged LRRK2 G2019S mutant (unknown origin) expressed in baculovirus expression system using fluorescein-labeled LRRKtide as substrate after 30 mins by Lanthascreen assay
quantity.measured: IC50 (nM)

>>> data_value("[2H]C([2H])([2H])c1cnc(Cc2nc3cnc4ccc(Cl)cc4c3n2[C@@H]2CCO[C@H](C)C2)cn1")
2.16
>>> data_value("N#Cc1ccc2ncc3nc(Cc4csnn4)n([C@@H]4CC[C@H](F)C4)c3c2c1 (relative stereo)")
9.75
>>> data_value("CCc1nc2cnc3ccc(Cl)cc3c2n1[C@@H]1CCO[C@H](CC#N)C1")
8.7
>>> data_value("Cc1nc(Cc2nc3cnc4ccc(C(F)(F)F)cc4c3n2[C@@H]2CCOCC2(F)F)no1")
26.5

----------
assayed.target: Leucine-rich repeat serine/threonine-protein kinase 2 (Homo sapiens)
assay.name: Inhibition of recombinant wild-type GST-tagged LRRK2 (unknown origin) expressed in baculovirus expression system using fluorescein-labeled LRRKtide as substrate after 30 mins by Lanthascreen assay
quantity.measured: IC50 (nM)

>>> data_value("N#Cc1ccc2ncc3nc(Cc4csnn4)n([C@@H]4CC[C@H](F)C4)c3c2c1 (relative stereo)")
9.73
>>> data_value("Cc1nc(Cc2nc3cnc4ccc(C(F)(F)F)cc4c3n2[C@@H]2CCOCC2(F)F)no1")
25.7
